Test system: NCI-H226
assay procedure: NCI tumour cell line growth inhibition, 48 h
Activity calls are given as the source filed them. Cut-off read from the data, not from the text of the source: active = GI50 up to about 1.1 µM and inactive = higher.
Classes used: true for active, false for inactive

- compound: "O=C(Nc1ccc([N+](=O)[O-])cc1[N+](=O)[O-])C(=O)C(C(=O)c1ccc2ccccc2c1)C1OC(=O)c2ccccc21 (centres undefined)"
  class name: "false"
- compound: "CSc1[nH]nc(N)c1C(=O)Nc1ccc(Cl)cc1"
  class name: "false"
- compound: "CNC(=O)C(C)NC(=O)C(Cc1ccccc1)NC(=O)OC(C)(C)C (centres undefined)"
  class name: "false"
- compound: "O=c1[nH]c(=O)n(C/C=C/CO)nc1Br"
  class name: "false"
- compound: "CCOC(=O)/C(C(=S)NCc1ccccc1)=C(/N)N1CCCC1"
  class name: "false"
- compound: "C=C1C(=O)OC2C1CCC(C)C1(O)C=CC(=O)C21C (centres undefined)"
  class name: "false"
- compound: "CCCNC(C#N)c1ccc(OCCCCCCCCCCOc2ccc(C(C#N)NCCC)cc2)cc1 (centres undefined)"
  class name: "false"
- compound: "Cc1ccc(-n2c(Cn3nnc(-c4cccnc4)n3)nn(C3OC(COC(=O)c4ccccc4)C(OC(=O)c4ccccc4)C3OC(=O)c3ccccc3)c2=S)cc1 (centres undefined)"
  class name: "false"
- compound: "CC(C)(CCCCC(C)(C)NC1=NCCO1)NC1=NCCO1"
  class name: "false"
- compound: "Cc1cc(=O)nc(S(=O)(=O)NC(=S)Nc2ccc(Br)cc2)[nH]1"
  class name: "false"
- compound: "CCOC1=C(c2ccccc2)N2CCCCC2O1 (centres undefined)"
  class name: "false"
- compound: "CCOc1cc2c(cc1O)C(O)C[C@@H]1[C@@H]2CC[C@]2(C)[C@@H](O)CC[C@@H]12 (some centres undefined)"
  class name: "true"
- compound: "CCO/N=C(/CC)c1ccc(Br)s1"
  class name: "false"
- compound: "CC(NC(=O)c1c(O)[nH]c(=S)[nH]c1=O)c1ccc([N+](=O)[O-])cc1 (centres undefined)"
  class name: "false"
